Documented pIC50 across a set of binders
Target: T1, hVEGF-C (human, UniProt P49767)
T1 construct: unlabelled; also called human VEGF-C
T1 sequence (VEGF-C, looked up): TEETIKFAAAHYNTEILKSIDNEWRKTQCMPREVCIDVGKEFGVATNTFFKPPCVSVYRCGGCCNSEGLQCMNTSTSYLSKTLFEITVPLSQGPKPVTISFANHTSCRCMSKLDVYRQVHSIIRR
Experiment: phage competition ELISA: phage-displayed clone incubated with increasing soluble hVEGF-C, unbound phage captured on hVEGF-C coated plate, anti-M13-HRP, OD450
pIC50: −log10 of the molar value.

[
  {
    "BINDER": "VC1.7 (antibody, V domains shown, also called clone VC1.7) VH: EVQLVESGGGLVQPGGSLRLSCAASGFTFSDSDIHWVRQAPGKGLEWVAWISPYSGYTDYADSVKGRFTISADTSKNTAYLQMNSLRAEDTAVYYCARLFDIIFDYWGQGTLVTVSS VL: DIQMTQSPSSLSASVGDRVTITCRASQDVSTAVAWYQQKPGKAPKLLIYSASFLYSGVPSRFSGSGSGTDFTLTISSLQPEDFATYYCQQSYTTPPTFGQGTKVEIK",
    "pIC50": 7.70
  },
  {
    "BINDER": "VC1.5 (antibody, V domains shown, also called clone VC1.5) VH: EVQLVESGGGLVQPGGSLRLSCAASGFTFSDSDIHWVRQAPGKGLEWVAWISPYSGYTDYADSVKGRFTISADTSKNTAYLQMNSLRAEDTAVYYCARLWEVIFDYWGQGTLVTVSS VL: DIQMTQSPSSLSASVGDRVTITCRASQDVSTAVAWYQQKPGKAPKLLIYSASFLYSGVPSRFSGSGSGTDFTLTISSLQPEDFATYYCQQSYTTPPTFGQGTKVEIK",
    "pIC50": 7.55
  },
  {
    "BINDER": "VC1.8 (antibody, V domains shown, also called clone VC1.8) VH: EVQLVESGGGLVQPGGSLRLSCAASGFTFSDSDIHWVRQAPGKGLEWVAWISPYSGYTDYADSVKGRFTISADTSKNTAYLQMNSLRAEDTAVYYCTRLFTIIFDYWGQGTLVTVSS VL: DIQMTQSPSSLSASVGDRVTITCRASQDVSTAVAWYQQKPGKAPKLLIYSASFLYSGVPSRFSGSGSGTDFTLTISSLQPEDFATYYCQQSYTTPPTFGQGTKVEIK",
    "pIC50": 7.65
  }
]
